Tested on: SF-539
Experiment: NCI tumour cell line growth inhibition, 48 h
Active and inactive are the calls of the source. No stated cut-off is given here; in the data, active = GI50 up to about 1.1 µM and inactive = higher.
Thanks in advance; please answer with one of these: y for active, n for inactive

c1ccc2c(c1)N=c1ccccc1=P21c2ccccc2Nc2ccccc21; y
CC(C)CC(NC(=O)c1cccc(O)c1O)C(=O)NCc1cc(CNC(=O)C(CC(C)C)NC(=O)c2cccc(O)c2O)cc(CNC(=O)C(CC(C)C)NC(=O)c2cccc(O)c2O)c1 (centres undefined); n
O=C(O)CN1CCN(CC(=O)N2CCN(C(=O)OCc3ccccc3)CC2)CCN(CC(=O)O)CCN(CC(=O)N2CCN(C(=O)OCc3ccccc3)CC2)CC1; n

What was the test verdict on "Cn1cnc([N+](=O)[O-])c1Sc1nccn1-c1ccccc1" ? n

What was the test verdict on O=C(O)CCC1CCc2cccc(O)c2C1=O (centres undefined) ? n

What was the test verdict on "COc1ccc(-c2cc(-c3cc(C)ccc3O)nc(O)n2)cc1" ? n

What was the test verdict on O=C1NC(=O)C2C3C=CC(C12)C1C2C(=O)NC(=O)C2C31 (centres undefined) ? n

What was the test verdict on "CC(=O)NS(=O)(=O)c1ccc(NCc2cccc3c(=O)c4ccc(Cl)cc4oc23)cc1" ? n

What was the test verdict on "CN(C)CC/C(=N\Nc1ccccc1)c1ccccc1" ? n
